target: E2F8 DNA-binding domain (Homo sapiens, UniProt A0AVK6, R156A/R314A); construct: N-terminal thioredoxin-6xHis tag removed by TEV protease; E. coli Rosetta (DE3) pLysS; assay: SPR (Biacore 8K, CM5 amine coupling, steady-state […])
Sequence (A0AVK6 110-350 R156A/R314A): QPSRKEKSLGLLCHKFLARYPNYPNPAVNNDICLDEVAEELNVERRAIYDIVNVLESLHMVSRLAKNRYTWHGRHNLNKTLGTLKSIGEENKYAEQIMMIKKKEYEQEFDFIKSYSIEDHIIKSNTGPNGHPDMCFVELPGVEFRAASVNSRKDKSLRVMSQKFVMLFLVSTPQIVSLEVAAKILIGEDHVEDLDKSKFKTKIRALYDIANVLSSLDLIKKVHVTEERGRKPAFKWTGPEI
Property: pKd
# pKd = -log10(concentration in molar units)

Result for O=C(Nc1ccccc1C(=O)O)c1cccc(N2C(=O)c3ccc(C(=O)Nc4ccccc4C(=O)O)cc3C2=O)c1 [HIT-4] , tested on E2F8 DNA-binding domain (Homo sapiens, UniProt A0AVK6, R156A/R314A), pKd: 5.10
